Recorded melting point values for a group of compounds are listed next.

Previously resolved entries follow.
CCC1=C(C#N)C(c2ccccc2OC)c2c[nH]nc2N1 (configuration not stated) : 230 to 232 °C
Oc1ccc2c(NCCN3CCOCC3)noc2c1 : 151 to 152 °C
Cn1c(C(F)F)nn(-c2cc(OCC(N)=O)c(Cl)cc2Cl)c1=O : 190 to 194 °C

Consider the additional compound presented here.
`Nc1ccc(N2C(=O)CCCC2=O)cc1` yielded melting point of 214 to 215 °C

* * *

Recorded melting point values for a group of compounds are listed next.

Previously resolved entries follow.
Oc1cccc2sncc12 : 133 to 134 °C
CCOC(=O)C(C(=O)OCC)c1ccc([N+](=O)[O-])cn1 : 91.5 to 93.5 °C
CCCCc1nc2c(N)nc3ccccc3c2n1CCOCCCc1ccccc1 : 80.8 to 81.3 °C

`CC(C)(C)OC(=O)NCc1ccc(C2(C)OCCO2)cc1` yielded melting point of 105 to 107 °C

COc1cc2c(cc1OC)C(=O)C(CN1CCC(O)(c3ccccc3)CC1)CC2 (configuration not stated) yielded melting point of 175 to 177 °C

`COc1c([N+](=O)[O-])cc(C=O)c(Cl)c1OC(C)=O` yielded melting point of 84 to 85 °C

CNCC1Cc2cc(-c3cccc(F)c3)cc(F)c2O1 (configuration not stated) yielded melting point of > 250 °C

O=C(O)CCCC(CCCNS(=O)(=O)c1ccc(Cl)cc1)CCc1cccnc1 (configuration not stated) yielded melting point of 83 to 85 °C

O=C1NC(=O)C2(c3cc(Oc4ccc(O)cc4)c(Cl)cc3F)CCCCC12 (configuration not stated) yielded melting point of 117 to 120 °C

`CCCN(Cc1ccc(-c2ccccc2-c2nnn[nH]2)cc1)c1ncccc1C(=O)O` yielded melting point of 202 to 204 °C

`O=C(OCCN1CCOC1=O)c1ccccc1Nc1ccnc2cc(C(F)(F)F)ccc12` yielded melting point of 124 to 125 °C

COc1cc(OC)nc(Oc2cccc3c2C(=O)OC3O)n1 (configuration not stated) yielded melting point of 143 to 145 °C

`O=S(=O)(Nc1cccc(Br)c1)c1cc(S(=O)(=O)Nc2cccc(Br)c2)c2ccccc2c1` yielded melting point of 183 to 186 °C

`O=c1c(CCCCCc2ccncc2)cc2cccnc2n1-c1cccc([N+](=O)[O-])c1` yielded melting point of 189 to 190 °C

CC1=CC(Cl)C(Cl)(c2cc(C)no2)C=C1C(=O)O (configuration not stated) yielded melting point of 212 to 213 °C

CCC1CCC2(C)C(=CCC3C4CC(O)C(=O)C4(C)CCC32)C1 (configuration not stated) yielded melting point of 166 to 168 °C

O=C1c2ccccc2C(=O)N1CC(=O)N1c2ccccc2N(c2ccccc2)C(=O)C2CCCC21 (configuration not stated) yielded melting point of 272 to 273 °C

CC(C)CC(NC(=O)c1ccc(Cl)cc1)NC(=NC#N)Nc1cccnc1 (configuration not stated) yielded melting point of 193 to 194 °C

`Cc1cc(C)cc(N2CCN(C(=O)Nc3cc(-c4cccnc4)nc4ccccc34)CC2)c1` yielded melting point of 211 to 213 °C

CCCC(O)C(C)C(=O)n1c(=O)oc2ccccc21 (configuration not stated) yielded melting point of 123 to 124 °C

`Cc1sc(N2CCCCC2)nc1CCl` yielded melting point of 79 to 80 °C

`CC(C)n1c2ccccc2c2sccc(=O)c21` yielded melting point of 154 to 156 °C

Attribution: a melting point compilation (Tetko et al.; mined from patent text by program, amines drawn as free bases though some values may be those of a salt)
